Tested on: A549
test_details: NCI tumour cell line growth inhibition, 48 h
Calls of active or inactive are those of the source. Cut-off read from the data, not from the text of the source: active = GI50 up to about 1.1 µM and inactive = higher.
property_measured: GI50

In [3]: df
Out[3]:
                                    molecule  property_measured  observed_measurement
 0     O=C(O)CC/C(=N\Nc1nsc2ccccc12)c1ccccc1               GI50   > 100 µM (inactive)
 1         Cc1ccc2cc3c(ccc4ccccc43)c3c2c1CC3               GI50   > 100 µM (inactive)
 2  O=S(=O)(c1ccc2ccccc2c1)N1CCN(S(=O)(=O)c2ccc3ccccc3c2)CC1               GI50   > 100 µM (inactive)
 3  Nc1nc(N)c2c3c(cnc2n1)CC(c1ccccc1)CC3 (stereo not drawn)               GI50    2.03 µM (inactive)
 4  COC1=CC(=O)[C@]2(C)[C@H](C1=O)C(C)[C@H]2c1ccccc1 (stereo partly drawn)               GI50   > 100 µM (inactive)
 5  C=C(C(=O)O)C1CCC(CC/C=C(\C)CC/C=C(\C)CCC=C(C)C)CO1 (stereo not drawn)               GI50    7.89 µM (inactive)
 6     CS(=O)(=O)c1ccc2nc(-c3ccc(O)cc3)sc2c1               GI50    16.4 µM (inactive)
 7  CC(C)NC(NC(C)C)=C(S(=O)(=O)C(F)(F)C(F)(F)C(F)(F)C(F)(F)F)S(=O)(=O)C(F)(F)C(F)(F)C(F)(F)C(F)(F)F               GI50   > 100 µM (inactive)
 8  CC12CC[C@@H](C(C)(C)O)C1[C@@H](O)CC1(C)C2CCC2[C@@]3(C)CC[C@H](O)C(C)(C)C3C(O)C[C@]21C (stereo partly drawn)               GI50    11.5 µM (inactive)
 9  COc1cc(N(CCC#N)CCC#N)ccc1/C=N\NC(=O)c1ccc(C)cc1               GI50   > 100 µM (inactive)
10  O=C(O)c1ccccc1-c1ccccc1C(=O)Nc1ccc2c(c1)nc(O)c1ccccc12               GI50   > 100 µM (inactive)
11      O=C(CCc1n[nH]c(=S)o1)Nc1ccc(Cl)cc1Cl               GI50   > 100 µM (inactive)
12  O=C(NNC(=S)Nc1ccccc1)c1ccccc1Nc1ccccc1C(=O)NNC(=S)Nc1ccccc1               GI50    27.2 µM (inactive)

---

System: K562
test_details: NCI tumour cell line growth inhibition, 48 h
Activity calls are given as the source filed them. No stated cut-off is given here; in the data, active = GI50 up to about 1.1 µM and inactive = higher.
Classes used: Yes = active, No = inactive

>>> print(df.to_string())
                                    compound  class
 0           Cc1cc(Cc2cc(C)c(N)cc2N)c(N)cc1N     No
 1  CC1OC(OC2C(O)C(O)C(O)C(O)C2O)C(N)CC1NC(=N)C(=O)O (stereo not drawn)     No
 2         O=C1C(SCCO)=C(SCCO)C(=O)c2ccccc21     No
 3  Cc1ccc(NC(=O)CC(=O)n2nc(-c3ccccc3)c(/N=N/c3ccccc3C(=O)O)c2-c2ccccc2)cc1     No
 4  Cc1oc(N)c(S(=O)(=O)/C(C#N)=C/c2ccccc2[N+](=O)[O-])c1C     No
 5                    Oc1ccc(O)c(-n2cccn2)c1     No
 6       CC(=O)OCCOCn1c2c(c(=S)[nH]c1=O)CCC2     No
 7  Oc1cc(N2CCCC2)ccc1/C=N/N1C(=S)N(c2ccccc2)C(=N\c2ccccc2)/C1=N/c1ccccc1     No
 8  O=c1cc(-c2ccccc2)oc2ccc(-c3ccc4oc(-c5ccccc5)cc(=O)c4c3)cc12     No
 9  CCC1(CC)N=C(C(F)(F)F)c2cc(C(=O)C(F)(F)F)c3ccccc3c2N1     No
10  Clc1cccc(Cl)c1C1SCc2nc3ncccc3n21 (stereo not drawn)     No
11    COc1cc2c(cc1OC)C(=O)N(c1ccc(O)cc1)C2=O     No
12  CCC(=O)OC1=C(c2ccccc2)Sc2ccc(Cl)cc2-n2cccc21     No
13  c1ccc2c(c1)cc(C1NCCc3nc[nH]c31)c1ccccc12 (stereo not drawn)     No
14  NC1(CCNC(=O)c2ccccc2)CCN(C(=O)c2ccccc2)CC1     No
15  COC(=O)[C@]1(CCC(C)=O)C(=O)C=CN([C@H](C)c2ccccc2)[C@@H]1Cc1ccc(OC)c(OCc2ccccc2)c1I     No
16  CC(C)CC/N=c1/cc2n(-c3ccc(Cl)cc3)c3ccccc3nc-2cc1Nc1ccc(Cl)cc1     No
17  Nc1nc(N)c2c3c(cnc2n1)CC(c1ccccc1)CC3 (stereo not drawn)    Yes
18  COc1cc(C2c3cc4c(cc3OC(N3CCOCC3)C2C)OCO4)cc(OC)c1OC(C)=O (stereo not drawn)     No
19  N#CC1(Cc2ccccc2Cl)c2ccccc2C=CN1C(=O)c1ccccc1 (stereo not drawn)     No
20          CSC(SC)=C(C#N)C(=O)Nc1cccc(Cl)c1     No
21          CCCc1cc(=O)oc2c(C=O)c(O)cc(O)c12     No
22  Nc1c2ccccc2nc2ccc3c(=O)cc(-c4ccccc4)oc3c12    Yes
23                  O=C(C#Cc1ccccc1)N1CCCCC1     No
24                     O=C1C=Cc2c(I)sc(I)c21     No
25  CCOC(=O)c1c2c(n3ccccc13)C(=O)c1ccccc1C2=O     No
26       CCOC(=O)CCn1[nH]c(=O)c(Cl)c(Cl)c1=O     No
27  COc1cccc(C2c3cc4c(cc3OC(C)(N3CCCC3)C2C)OCO4)c1 (stereo not drawn)     No
28                CS(=O)(=O)CSCSSCS(C)(=O)=O     No
29  COc1cc(CN(C)N2C(=O)c3cccc4cc([N+](=O)[O-])cc(c34)C2=O)cc(OC)c1OC     No
30                        O=c1sc2c(s1)SSSSS2     No
31  O=C1CSC(c2ccccc2)N1c1ccc(-n2c(-c3ccccc3)nc3ccccc3c2=O)cc1 (stereo not drawn)     No
32  C=CCN1C(=O)C[C@H](Cc2ccccc2)NC(=O)C[C@H](Cc2ccccc2)N(CC=C)C(=O)C[C@H](Cc2ccccc2)NC(=O)C[C@@H]1Cc1ccccc1     No
